# assay-text: Partition (logP) and distribution (logD) coefficients, hydrophobicity comparison
# Format: physicochemical
# stated-conditions: distribution coefficient, 177Lu-labeled compound; read-out: LogD
outcome-measure: LogD

[
  {
    "compound": "O=C(O)CCC(NC(=O)NC(CCCCNC(=O)CCCCCCCCCCCNC(=O)CN1CCN(CC(=O)O)CCN(CC(=O)O)CCN(CC(=O)O)CC1)C(=O)O)C(=O)O (stereo not shown) [^177Lu-PSMA-C12, metal not drawn]",
    "outcome-measure": "LogD",
    "numeric-result": -2.9
  }
]

* * *

# target-of-assay: PSMA (LNCap cells, PSMA positive) (Homo sapiens)
# Construct: endogenous in cells; host or cells: LNCap cells (human prostate adenocarcinoma)
# Sequence (Q04609 whole entry): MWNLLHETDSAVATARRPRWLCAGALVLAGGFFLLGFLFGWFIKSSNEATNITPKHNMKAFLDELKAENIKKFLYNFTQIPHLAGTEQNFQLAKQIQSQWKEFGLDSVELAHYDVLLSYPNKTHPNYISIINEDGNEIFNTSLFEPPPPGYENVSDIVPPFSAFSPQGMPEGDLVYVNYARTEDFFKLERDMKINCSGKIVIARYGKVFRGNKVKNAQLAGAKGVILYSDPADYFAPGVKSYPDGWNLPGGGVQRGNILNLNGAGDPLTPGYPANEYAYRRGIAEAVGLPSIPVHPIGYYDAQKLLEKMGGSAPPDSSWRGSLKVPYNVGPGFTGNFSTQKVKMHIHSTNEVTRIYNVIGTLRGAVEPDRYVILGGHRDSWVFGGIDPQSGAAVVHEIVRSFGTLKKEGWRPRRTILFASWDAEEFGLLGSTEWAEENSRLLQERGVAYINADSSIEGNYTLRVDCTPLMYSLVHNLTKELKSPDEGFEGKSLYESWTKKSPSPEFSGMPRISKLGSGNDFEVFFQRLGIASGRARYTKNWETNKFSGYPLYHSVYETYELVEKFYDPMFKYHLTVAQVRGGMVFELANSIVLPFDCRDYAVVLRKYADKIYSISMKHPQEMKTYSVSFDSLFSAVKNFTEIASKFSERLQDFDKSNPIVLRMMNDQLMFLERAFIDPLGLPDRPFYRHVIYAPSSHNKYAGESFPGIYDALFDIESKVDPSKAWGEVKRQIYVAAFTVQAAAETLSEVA
# assay-text: Competitive binding assay in LNCap cells using 86Y as a radioligand
# stated-conditions: 86Y radioligand, read-out: half inhibition concentration (IC50)
outcome-measure: IC50 (nM)

[
  {
    "molecule": "O=C(O)CCC(NC(=O)NC(CCCCNC(=O)CCCCCCCCCCCNC(=O)CN1CCN(CC(=O)O)CCN(CC(=O)O)CCN(CC(=O)O)CC1)C(=O)O)C(=O)O (stereo not shown) [^86Y-PSMA-C12, metal not drawn]",
    "u": "nM",
    "numeric-result": 58.2
  }
]

Data origin, for the record: patent US20230302164A1
